Experiment: CNS penetration study
Details: male, Sprague-Dawley, rat, brain/plasma, iv, 1 mg/kg
metric-name: Kp uu at 1 h

Would you mind telling me what Kp uu at 1 h value was observed for CCCCN(Cc1ccc2[nH]ccc2c1)C(=O)c1ccc(S(=O)(=O)Nc2ccccc2)cc1 ? < 0.03

* * *

Test: In vivo PK, i.v. dosing
Settings: male, Sprague-Dawley, rat, plasma, iv, 0.5 mg/kg
metric-name: half-life at 1 h

Would you mind telling me what half-life at 1 h value was observed for COCCNc1ccc(CN(CC2CC2)C(=O)c2ccc(S(=O)(=O)Nc3ccccc3)cc2)nc1 [Compound 75] ? 24 min

* * *

Experiment: In vivo PK, i.v. dosing
Settings: male, Sprague-Dawley, rat, plasma, iv, 0.2 mg/kg
metric-name: Vd at 1 h

Would you mind telling me what Vd at 1 h value was observed for N#CCCN(Cc1ccncc1)C(=O)c1ccc(S(=O)(=O)Nc2ccccc2)cc1 ? 0.4 L/kg
